viability, T/C values, listed per item
# Tested on: 233499-124-R-J3-PDC complex spheroid growth
# Measurement protocol: Anticancer human tumor 233499-124-R-J3-PDC patient-derived colon adenocarcinoma cell line growth inhibition [AhR]
# Details: second compound 0.1 µM; first compound 10 µM; hits give low values
Quantity name: viability, T/C (%)

| Compound | Readout value |
| --- | --- |
| COc1cccc2c1C(=O)c1c(O)c3c(c(O)c1C2=O)CC(O)(C(=O)CO)CC3OC1CC(N)C(O)C(C)O1 (stereo not drawn) + Cc1cncc(-c2nc(NCCc3c[nH]c4ccccc34)c3ncn(C(C)C)c3n2)c1 | 51.2 |
| O=C(C=Cc1cccc(S(=O)(=O)Nc2ccccc2)c1)NO + Cc1ccccc1N=Nc1ccc(NC(=O)c2ccnn2C)c(C)c1 | 14 |
| NS(=O)(=O)OCC1CC(n2ccc3c(NC4CCc5ccccc54)ncnc32)CC1O (stereo not drawn) + Cc1ccccc1N=Nc1ccc(NC(=O)c2ccnn2C)c(C)c1 | 3.77 |

* * *

# Test system: 233499-124-R-J3-PDC complex spheroid growth
# Measurement protocol: Anticancer human tumor 233499-124-R-J3-PDC cell line growth inhibition [AhR]; active = viability on the fitted dose curve at most 10% of control; inactive = the rest;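 note: spheroids exposed to agents for seven days before reading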
# Details: second compound 10 µM; first compound 0.00316 µM
Classes used: Yes (active), No (inactive)

| Molecule | Target entity | Label value |
| --- | --- | --- |
| CC1COCCN1c1cc(-c2ccnn2C)c2ccnc(-c3ccn[nH]3)c2n1 (configuration not stated) + Cc1ccccc1N=Nc1ccc(NC(=O)c2ccnn2C)c(C)c1 | 233499-124-R-J3-PDC complex spheroid growth | No |
| CC[C@@]1(O)C(=O)OCc2c1cc1n(c2=O)Cc2cc3c(CN(C)C)c(O)ccc3nc2-1 + Cc1cncc(-c2nc(NCCc3c[nH]c4ccccc34)c3ncn(C(C)C)c3n2)c1 | 233499-124-R-J3-PDC complex spheroid growth | No |
| Cn1ncnc1C1c2n[nH]c(=O)c3cc(F)cc(c23)NC1c1ccc(F)cc1 (configuration not stated) + Cc1ccccc1N=Nc1ccc(NC(=O)c2ccnn2C)c(C)c1 | 233499-124-R-J3-PDC complex spheroid growth | No |
| Nc1ncn(C2CC(O)C(CO)O2)c(=O)n1 (configuration not stated) + Cc1cncc(-c2nc(NCCc3c[nH]c4ccccc34)c3ncn(C(C)C)c3n2)c1 | 233499-124-R-J3-PDC complex spheroid growth | No |
| CC[C@@]1(O)C(=O)OCc2c1cc1n(c2=O)Cc2cc3c(CN(C)C)c(O)ccc3nc2-1 + CC(CO)NC(=O)c1cc(-c2ccc(Cl)cc2)nn(-c2cnn(C)c2)c1=O | 233499-124-R-J3-PDC complex spheroid growth | No |
| Cn1ncnc1C1c2n[nH]c(=O)c3cc(F)cc(c23)NC1c1ccc(F)cc1 (configuration not stated) + CC(CO)NC(=O)c1cc(-c2ccc(Cl)cc2)nn(-c2cnn(C)c2)c1=O | 233499-124-R-J3-PDC complex spheroid growth | No |
| Cn1ncnc1C1c2n[nH]c(=O)c3cc(F)cc(c23)NC1c1ccc(F)cc1 (configuration not stated) + Cc1cncc(-c2nc(NCCc3c[nH]c4ccccc34)c3ncn(C(C)C)c3n2)c1 | 233499-124-R-J3-PDC complex spheroid growth | No |
| Nc1ncn(C2CC(O)C(CO)O2)c(=O)n1 (configuration not stated) + CC(CO)NC(=O)c1cc(-c2ccc(Cl)cc2)nn(-c2cnn(C)c2)c1=O | 233499-124-R-J3-PDC complex spheroid growth | No |
| CC1COCCN1c1cc(-c2ccnn2C)c2ccnc(-c3ccn[nH]3)c2n1 (configuration not stated) + CC(CO)NC(=O)c1cc(-c2ccc(Cl)cc2)nn(-c2cnn(C)c2)c1=O | 233499-124-R-J3-PDC complex spheroid growth | No |
| CC1COCCN1c1cc(-c2ccnn2C)c2ccnc(-c3ccn[nH]3)c2n1 (configuration not stated) + Cc1cncc(-c2nc(NCCc3c[nH]c4ccccc34)c3ncn(C(C)C)c3n2)c1 | 233499-124-R-J3-PDC complex spheroid growth | Yes |
| CC[C@@]1(O)C(=O)OCc2c1cc1n(c2=O)Cc2cc3c(CN(C)C)c(O)ccc3nc2-1 + Cc1ccccc1N=Nc1ccc(NC(=O)c2ccnn2C)c(C)c1 | 233499-124-R-J3-PDC complex spheroid growth | No |
| Nc1ncn(C2CC(O)C(CO)O2)c(=O)n1 (configuration not stated) + Cc1ccccc1N=Nc1ccc(NC(=O)c2ccnn2C)c(C)c1 | 233499-124-R-J3-PDC complex spheroid growth | No |

* * *

Each entry below carries its recorded viability, T/C.
# Tested on: 233499-124-R-J3-PDC complex spheroid growth
# Measurement protocol: Anticancer human tumor 233499-124-R-J3-PDC cell line growth inhibition [AhR];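 note: spheroids exposed to agents for seven days before reading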
# Details: second compound 10 µM; first compound 0.1 µM; hits give low values

| Compound | viability, T/C [%] |
| --- | --- |
| Nc1ccccc1NC(=O)c1ccc(CNC(=O)OCc2cccnc2)cc1 + CC(CO)NC(=O)c1cc(-c2ccc(Cl)cc2)nn(-c2cnn(C)c2)c1=O | 82.9 |
| CC1COCCN1c1cc(C2(S(C)(=N)=O)CC2)nc(-c2ccnc3[nH]ccc23)n1 (stereo not given) + Cc1cncc(-c2nc(NCCc3c[nH]c4ccccc34)c3ncn(C(C)C)c3n2)c1 | 14.3 |
| COc1cc(C2c3cc4c(cc3C(OC3OC5COC(C)OC5C(O)C3O)C3COC(=O)C23)OCO4)cc(OC)c1O (stereo not given) + Cc1ccccc1N=Nc1ccc(NC(=O)c2ccnn2C)c(C)c1 | 102 |
| COc1cccc2c1C(=O)c1c(O)c3c(c(O)c1C2=O)CC(O)(C(=O)CO)CC3OC1CC(N)C(O)C(C)O1 (stereo not given) + Cc1ccccc1N=Nc1ccc(NC(=O)c2ccnn2C)c(C)c1 | 95.1 |
| CC1(C)CCC(CN2CCN(c3ccc(C(=O)NS(=O)(=O)c4ccc(NCC5CCOCC5)c([N+](=O)[O-])c4)c(Oc4cnc5[nH]ccc5c4)c3)CC2)=C(c2ccc(Cl)cc2)C1 + CC(CO)NC(=O)c1cc(-c2ccc(Cl)cc2)nn(-c2cnn(C)c2)c1=O | 89.5 |

* * *

# Tested on: 233499-124-R-J3-PDC complex spheroid growth
# Measurement protocol: Anticancer human tumor 233499-124-R-J3-PDC cell line growth inhibition [AhR];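 note: spheroids exposed to agents for seven days before reading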
# Details: second compound 0.1 µM; first compound 10 µM; hits give low values

| Compound | viability, T/C, % |
| --- | --- |
| CC(C)c1c(-c2ccccc2)nc2c(C#N)c[nH]n2c1=O + Cc1ccccc1N=Nc1ccc(NC(=O)c2ccnn2C)c(C)c1 | 105 |
| COc1ccc([C@@H](O)c2cc(-c3ncnc4cc(N5CCOCC5)ccc34)c(F)cc2Cl)nn1 + Cc1cncc(-c2nc(NCCc3c[nH]c4ccccc34)c3ncn(C(C)C)c3n2)c1 | 64.1 |
| CC1(C)CCC(CN2CCN(c3ccc(C(=O)NS(=O)(=O)c4ccc(NCC5CCOCC5)c([N+](=O)[O-])c4)c(Oc4cnc5[nH]ccc5c4)c3)CC2)=C(c2ccc(Cl)cc2)C1 + Cc1cncc(-c2nc(NCCc3c[nH]c4ccccc34)c3ncn(C(C)C)c3n2)c1 | 109 |
| COc1cc(C2c3cc4c(cc3C(OC3OC5COC(C)OC5C(O)C3O)C3COC(=O)C23)OCO4)cc(OC)c1O (stereo unspecified) + CC(CO)NC(=O)c1cc(-c2ccc(Cl)cc2)nn(-c2cnn(C)c2)c1=O | 77.7 |
| O=C(c1cc(Cc2n[nH]c(=O)c3ccccc23)ccc1F)N1CCN(C(=O)C2CC2)CC1 + Cc1cncc(-c2nc(NCCc3c[nH]c4ccccc34)c3ncn(C(C)C)c3n2)c1 | 105 |
| CC1(C)CCC(CN2CCN(c3ccc(C(=O)NS(=O)(=O)c4ccc(NCC5CCOCC5)c([N+](=O)[O-])c4)c(Oc4cnc5[nH]ccc5c4)c3)CC2)=C(c2ccc(Cl)cc2)C1 + Cc1ccccc1N=Nc1ccc(NC(=O)c2ccnn2C)c(C)c1 | 51.5 |

* * *

# Test system: 233499-124-R-J3-PDC complex spheroid growth
# Measurement protocol: Anticancer human tumor 233499-124-R-J3-PDC cell line growth inhibition [AhR];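 note: spheroids exposed to agents for seven days before reading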
# Details: second compound 3.16 µM; first compound 0.1 µM; hits give low values
Readings of viability, T/C for the listed molecules
Quantity name: viability, T/C (%)

| Molecule | Quantity name | Measurement unit | Readout value |
| --- | --- | --- | --- |
| CC1COCCN1c1cc(-c2ccnn2C)c2ccnc(-c3ccn[nH]3)c2n1 (stereo not drawn) + Cc1ccccc1N=Nc1ccc(NC(=O)c2ccnn2C)c(C)c1 | viability, T/C | % | 74 |
| O=C(c1cc(Cc2n[nH]c(=O)c3ccccc23)ccc1F)N1CCN(C(=O)C2CC2)CC1 + Cc1cncc(-c2nc(NCCc3c[nH]c4ccccc34)c3ncn(C(C)C)c3n2)c1 | viability, T/C | % | 86.4 |
| CC(C)c1c(-c2ccccc2)nc2c(C#N)c[nH]n2c1=O + Cc1cncc(-c2nc(NCCc3c[nH]c4ccccc34)c3ncn(C(C)C)c3n2)c1 | viability, T/C | % | 86.5 |
| Nc1ccccc1NC(=O)c1ccc(CNC(=O)OCc2cccnc2)cc1 + Cc1ccccc1N=Nc1ccc(NC(=O)c2ccnn2C)c(C)c1 | viability, T/C | % | 106 |
| COc1cc(Nc2ncc3c(n2)-c2ccc(Cl)cc2C(c2c(F)cccc2OC)=NC3)ccc1C(=O)O + Cc1ccccc1N=Nc1ccc(NC(=O)c2ccnn2C)c(C)c1 | viability, T/C | % | 80.4 |
| COc1cc(Nc2ncc3c(n2)-c2ccc(Cl)cc2C(c2c(F)cccc2OC)=NC3)ccc1C(=O)O + CC(CO)NC(=O)c1cc(-c2ccc(Cl)cc2)nn(-c2cnn(C)c2)c1=O | viability, T/C | % | 67.4 |
| Nc1ccn(C2OC(CO)C(O)C2(F)F)c(=O)n1 (stereo not drawn) + Cc1ccccc1N=Nc1ccc(NC(=O)c2ccnn2C)c(C)c1 | viability, T/C | % | 81.3 |
| COc1ccc([C@@H](O)c2cc(-c3ncnc4cc(N5CCOCC5)ccc34)c(F)cc2Cl)nn1 + CC(CO)NC(=O)c1cc(-c2ccc(Cl)cc2)nn(-c2cnn(C)c2)c1=O | viability, T/C | % | 86.3 |
| CC(C)c1c(-c2ccccc2)nc2c(C#N)c[nH]n2c1=O + CC(CO)NC(=O)c1cc(-c2ccc(Cl)cc2)nn(-c2cnn(C)c2)c1=O | viability, T/C | % | 95.3 |
| CC1COCCN1c1cc(C2(S(C)(=N)=O)CC2)nc(-c2ccnc3[nH]ccc23)n1 (stereo not drawn) + Cc1cncc(-c2nc(NCCc3c[nH]c4ccccc34)c3ncn(C(C)C)c3n2)c1 | viability, T/C | % | 76 |
| COc1ccc([C@@H](O)c2cc(-c3ncnc4cc(N5CCOCC5)ccc34)c(F)cc2Cl)nn1 + Cc1ccccc1N=Nc1ccc(NC(=O)c2ccnn2C)c(C)c1 | viability, T/C | % | 101 |
| O=C(c1cc(Cc2n[nH]c(=O)c3ccccc23)ccc1F)N1CCN(C(=O)C2CC2)CC1 + Cc1ccccc1N=Nc1ccc(NC(=O)c2ccnn2C)c(C)c1 | viability, T/C | % | 106 |
| COc1cc(C2c3cc4c(cc3C(OC3OC5COC(C)OC5C(O)C3O)C3COC(=O)C23)OCO4)cc(OC)c1O (stereo not drawn) + Cc1ccccc1N=Nc1ccc(NC(=O)c2ccnn2C)c(C)c1 | viability, T/C | % | 97.5 |
